- Tested on: Staphylococcus aureus
- Assay Remarks: Antibacterial activity against methicillin-susceptible Staphylococcus aureus ATCC 29213 incubated for 16 to 20 hrs by CLSI based broth microdilution method
- Type: functional
- Cond: time 16-20 hrs
Readout: MIC (µg/mL)
# number only, unit µg/mL dropped from output

> print(dat)
                                  structure    experimental.target  readout  observed.measurement
1  Nc1ncnc2c1ncn2CCCCCS(=O)(=O)NC(=O)NCCCC[C@@H]1SC[C@@H]2NC(=O)N[C@@H]21  Staphylococcus aureus      MIC                    16
2  Nc1ncnc2c1ncn2CCCCOS(=O)(=O)NC(=O)NCCCC[C@@H]1SC[C@@H]2NC(=O)N[C@@H]21  Staphylococcus aureus      MIC                    32

// switching to the query molecule
# MIC of "Nc1ncnc2c1ncn2CCCNS(=O)(=O)NC(=O)OCCCCC[C@@H]1SC[C@@H]2NC(=O)N[C@@H]21" = 32
